Source of measurements: the supplement of paper PMC9732359

Assay: protein stability index of a GFP-peptide fusion (yeast GPS) (PSI 1-4); higher = more stable; sorted into four equal gates, so the index is relative within each strain
Settings: doa10∆
QUANTITY NAME: protein stability index

biosequence="TPVSHNDDLYGKVTDVR [RPL1A]" meas_value=3.04
biosequence="PKNSKTPQSKGFVRNSF [RPO31]" meas_value=3.17
biosequence="ELSDKEIYTVEDRPPEY [ISW2]" meas_value=3.34
biosequence="IEMKDVSSKPSKPESSV [MED1]" meas_value=3.15
biosequence="NGVIIAADNLGSYGSLL [PRE4]" meas_value=3.05
biosequence="RLILLLNHRNKNQHRAA [RMP1]" meas_value=1.44
biosequence="KEKAPTIIFIDELDAIG [RPT5]" meas_value=2.57
biosequence="ELTDEYLAENPDPNFEN [PRP8]" meas_value=3.45
biosequence="IGAAELNENARELEQIK [SNF12]" meas_value=3.18
biosequence="NVVEVMDMNEIEDKENS [RPT5]" meas_value=3.02
biosequence="VEAQSHRLTLEDPVTVE [PRE6]" meas_value=3.23
biosequence="STLLCTDLESKSRMINF [SNU114]" meas_value=2.62
biosequence="RETLVKTWEKVTLDFGN [SMC2]" meas_value=1.77
biosequence="VGHLSILPQQSKLKLKN [ECM29]" meas_value=1.91
biosequence="ESLYEPNLEPEDLFETI [PUP3]" meas_value=3.27
biosequence="LKTDGVRAVSITSFGFG [FAS2]" meas_value=1.44
biosequence="GDKDTRADIVRNIILEA [ISW2]" meas_value=2.1
biosequence="ALNNAIPGGPKFEPLYP [PRP8]" meas_value=3.1
biosequence="ESSINTHPHAADGSSYM [SKI6]" meas_value=2.98
biosequence="EYNRLKVQDAIEEEIFD [LIN1]" meas_value=2.83
biosequence="TLKKNNVAVDIINFGEI [RPN10]" meas_value=2.97
biosequence="TYLLKNDLVKARDLLDD [RPN9]" meas_value=2.7
biosequence="PKASSAKFFLNVSDEQL [ITC1]" meas_value=3.1
biosequence="YGESDIHFREHQSELII [YMR129W/POM152]" meas_value=2.31
biosequence="PVLSTIAFLVGLVNPKT [SWI3]" meas_value=2.98
biosequence="SARGSYLRVSFKNTRET [RPL17A]" meas_value=3.1
biosequence="QTANEKHITVRLTAKRL [SRP14]" meas_value=2.75
biosequence="TREKVLEDKLRAVLTPL [RRP46]" meas_value=2.89
biosequence="APNTLTNILISPLNTTT [YML103C/NUP188]" meas_value=2.23
biosequence="QNISPVYSVDPLEKITD [PRP8]" meas_value=2.94
biosequence="KTESQDVETRVQNLEQT [DPB4]" meas_value=3.49
biosequence="YSLQPSVDITGGPWFTD [RPC34]" meas_value=1.89
biosequence="SHINTNVGDNNSTASSS [ARP7]" meas_value=2.68
biosequence="LNELHPTLPTNHNKTKL [PRP8]" meas_value=2.88
biosequence="YGIVAMAATATDKIGRS [FAS2]" meas_value=1.64
biosequence="ATYMDNDIAGQPQALQK [RPO21]" meas_value=2.56
biosequence="DELILPLPSHALTVQEV [YDL116W/NUP84]" meas_value=2.4
biosequence="NGKDSEIMYTGVSISVS [SMC3]" meas_value=3.29
biosequence="RESFEDNVVRFLNEARD [RPO21]" meas_value=3.21
biosequence="LCLEKLMCLSSKYCEKS [YCS4]" meas_value=1.55
biosequence="VSANTPKSLNSNININV [SWI1]" meas_value=3.14
biosequence="NTGLLNKANIQALIHGL [RPN11]" meas_value=3.02
biosequence="SNYDWLFQLLNALTVGD [RPN9]" meas_value=2.34
biosequence="GKRQVLLRPSSKVIIKF [RPS22B]" meas_value=2.83
biosequence="VDRSKYNIELPLPPRID [RPT1]" meas_value=3.33
biosequence="FPMPYENEEFITFLQTL [ECM29]" meas_value=2.34
biosequence="KVISSDARGVIGVIAGG [RPL2A]" meas_value=2.81
biosequence="KLLDSGCENPADVFRRC [SRP72]" meas_value=2.46
biosequence="ARVKAFDRHCNMVLENV [SMD2]" meas_value=1.53
biosequence="GLHPFEVAQLGSLACDT [RPB4]" meas_value=1.9
biosequence="DHILFTKTFIFIYKKVL [SRB8]" meas_value=1.49
biosequence="LEFYKDKFFNEVNKSEL [SIR3]" meas_value=3.31
biosequence="NTGDGSISTYKDILNLA [ECM29]" meas_value=3.03
biosequence="IASTEKPENKTDKVSLS [SIR4]" meas_value=3.21
biosequence="LIPFIVKQVLLSVEIGV [NUT1]" meas_value=1.57
biosequence="IEQFAMRRNSKILNIIK [POP5]" meas_value=3.08
biosequence="ANDFQLTIVTCKQFPKL [SRB8]" meas_value=1.83
biosequence="PFKFGKTSEKSENHTES [YOR098C/NUP1]" meas_value=2.94
biosequence="SQDTKVICSVTGPIEPK [RRP46]" meas_value=1.68
biosequence="RTIGIAVDHRRQNRNQE [RPL13A]" meas_value=2.65

----------
Assay: protein stability index of a GFP-peptide fusion (yeast GPS) (PSI 1-4); higher = more stable; sorted into four equal gates, so the index is relative within each strain
Conditions: ubr1∆
QUANTITY NAME: protein stability index

biosequence="VRTNRFDIIEESFKGLQ [ECM29]" meas_value=2.26
biosequence="NIKSNDFSIRKTCAKSV [ECM29]" meas_value=2.83
biosequence="DSIASVLSPDSNIMSDS [GAL11]" meas_value=3.09
biosequence="YSLQPSVDITGGPWFTD [RPC34]" meas_value=2.49
biosequence="KFLQVMQKHGYIGEFEY [RPS22A]" meas_value=2.6
biosequence="AHCILGIGGDHAKFSPV [RPC40]" meas_value=2.85
biosequence="LYRSIESGEFDFDLFKE [YJL039C/NUP192]" meas_value=2.91
biosequence="KCTAEGIKVSLLGIFDD [RPC25]" meas_value=2.04
biosequence="VDIEYTRGRNIIMHKDV [RET1]" meas_value=2.84
biosequence="RGSLDSEHVFDYFFYFL [NUT1]" meas_value=3.16
biosequence="RNSPFWWTNSHHDGKLW [PRP8]" meas_value=2.78
biosequence="CLFTKCLEDPEKPFNEN [POP4]" meas_value=2.96
biosequence="NRPDNKNAQYHLLVKQG [RPN7]" meas_value=2.78
biosequence="PLLPIVEELMKKRRGSR [SNU114]" meas_value=2.83

----------
Assay: protein stability index of a GFP-peptide fusion (yeast GPS) (PSI 1-4); higher = more stable; sorted into four equal gates, so the index is relative within each strain
Conditions: doa10∆
Assign T whenever protein stability index does not fall below 3; assign F whenever it does.

biosequence="YLKESKRKYDEITHPPS [SWI3]" group_label=F
biosequence="EEEIKKFDSRIRGILMA [PRP8]" group_label=F
biosequence="EVGNRKHYLEDKLKVYK [SNF5]" group_label=T
biosequence="LLPQWDDDQIESLKKSP [ARP9]" group_label=T
biosequence="TPGSVSLSAYNLTDEGY [PRP8]" group_label=F
biosequence="SCKDSQLKWAQNTIDDT [YIL149C/MLP2]" group_label=F
biosequence="FLQGESPFSITFSVYHE [YMR129W/POM152]" group_label=F
biosequence="QPWQMDTNNEADLMALE [SNF12]" group_label=F
biosequence="KVLLPSINISCVQLIKC [SWI1]" group_label=F
biosequence="RVVVPQALRVLRLKPGR [RPL16B]" group_label=F
biosequence="CDKSVCRKCYARLPPRA [RPL40A]" group_label=F
biosequence="NRQICLVQKTVQESGNI [GRR1]" group_label=T

----------
Test: protein stability index of a GFP-peptide fusion (yeast GPS) (PSI 1-4); higher = more stable; sorted into four equal gates, so the index is relative within each strain
Conditions: san1∆
Assign condition met whenever protein stability index does not fall below 3; assign condition not met whenever it does.

biosequence="KVVTKKYCEIMGDNSQL [SNF2]" group_label="condition not met"
biosequence="EHASLLVRDSKPSKPFN [MED8]" group_label="condition not met"
biosequence="DNTSHDEQDDDNVNSTT [BRN1]" group_label="condition met"
biosequence="SLWRRTVYSLSQQAGLD [YDL116W/NUP84]" group_label="condition not met"
biosequence="YYSRITLLRLNELLDLT [RPN5]" group_label="condition not met"
biosequence="RGHVLQFEWHQNSLLTN [SNF2]" group_label="condition met"
biosequence="CSIEPIAAKLINSGLYS [YML103C/NUP188]" group_label="condition not met"
biosequence="KVLLPSINISCVQLIKC [SWI1]" group_label="condition not met"
biosequence="LEQFMERNNIGEICKNY [YDL116W/NUP84]" group_label="condition not met"
biosequence="LEEKLYQMQSNYESVFT [YIL149C/MLP2]" group_label="condition not met"
biosequence="PEELARILQQLKLDKII [RGR1]" group_label="condition met"
biosequence="NLIGVITHQGANSESGH [UBP6]" group_label="condition met"
biosequence="PVRTIVPISTSQTNNSF [SIR4]" group_label="condition not met"
biosequence="INELTLLVQKRFKYAPG [RPS3]" group_label="condition not met"
biosequence="VLMETKNTQSPQTPLVE [SNU114]" group_label="condition not met"
biosequence="FVAATTNAGYTIELAGG [FAS1]" group_label="condition not met"
biosequence="ATADTTHLHEALDIVCS [NUT1]" group_label="condition not met"
biosequence="NKLRQQAIAKNNPQVVN [SNF5]" group_label="condition not met"
biosequence="IIASASYDKTVKLWEED [YGL100W/SEH1]" group_label="condition met"
biosequence="TPMDESSYDLLFNESFI [SRP72]" group_label="condition not met"
biosequence="DNSEYSRNGDFPRTRFE [RPN10]" group_label="condition met"
biosequence="IMNMIENVEKKEAALKT [SMC2]" group_label="condition not met"
biosequence="DQNNKKMVGLRGFNNQI [SNF2]" group_label="condition met"
